- protocol: Intrinsic clearance in rat liver microsomes at 1 uM preincubated for 5 mins followed by NADPH addition and measured upto 60 mins by LC-MS analysis
- Format: ADME, Microsome
- studyConditions: time 65 min, read-out: CLH
parameter: microsomal CLint at 1 µM (µL/min/mg)
# unit: µL/min/mg | format: bare number

Check out these entries, answers already filled in.
>  <chemicalStructure>
CC[C@@H]1NC(=O)[C@H]([C@@H]2O[C@@H](Sc3cccc(NCc4ccccc4)c3)C[C@H]2C)N(C)C(=O)[C@H](C(C)C)N(C)C(=O)[C@H](CC(C)C)N(C)C(=O)[C@H](CC(C)C)N(C)C(=O)[C@@H](C)NC(=O)[C@H](C)NC(=O)[C@H](CC(C)C)N(C)C(=O)[C@H](C(C)C)NC(=O)[C@H](CC(C)C)N(C)C(=O)CN(C)C1=O

>  <microsomal CLint at 1 µM, µL/min/mg>
1.4

$$$$
>  <chemicalStructure>
CC[C@@H]1NC(=O)[C@H]([C@@H]2O[C@H](Sc3cccc(OCc4ccccc4)c3)C[C@H]2C)N(C)C(=O)[C@H](C(C)C)N(C)C(=O)[C@H](CC(C)C)N(C)C(=O)[C@H](CC(C)C)N(C)C(=O)[C@@H](C)NC(=O)[C@H](C)NC(=O)[C@H](CC(C)C)N(C)C(=O)[C@H](C(C)C)NC(=O)[C@H](CC(C)C)N(C)C(=O)CN(C)C1=O

>  <microsomal CLint at 1 µM, µL/min/mg>
3

$$$$
>  <chemicalStructure>
CC[C@@H]1NC(=O)[C@H]([C@@H]2O[C@@H](Sc3cccc(OCc4ccc(F)cc4C)c3)C[C@H]2C)N(C)C(=O)[C@H](C(C)C)N(C)C(=O)[C@H](CC(C)C)N(C)C(=O)[C@H](CC(C)C)N(C)C(=O)[C@@H](C)NC(=O)[C@H](C)NC(=O)[C@H](CC(C)C)N(C)C(=O)[C@H](C(C)C)NC(=O)[C@H](CC(C)C)N(C)C(=O)CN(C)C1=O

>  <microsomal CLint at 1 µM, µL/min/mg>
0.8

$$$$
>  <chemicalStructure>
CC[C@@H]1NC(=O)[C@H]([C@@H]2O[C@@H](Sc3ccc(Cl)c(OC)c3)C[C@H]2C)N(C)C(=O)[C@H](C(C)C)N(C)C(=O)[C@H](CC(C)C)N(C)C(=O)[C@H](CC(C)C)N(C)C(=O)[C@@H](C)NC(=O)[C@H](C)NC(=O)[C@H](CC(C)C)N(C)C(=O)[C@H](C(C)C)NC(=O)[C@H](CC(C)C)N(C)C(=O)CN(C)C1=O

>  <microsomal CLint at 1 µM, µL/min/mg>
2

$$$$
>  <chemicalStructure>
CC[C@@H]1NC(=O)[C@H]([C@@H]2O[C@@H](Sc3cccc(OCc4ccccc4)c3)C[C@H]2C)N(C)C(=O)[C@H](C(C)C)N(C)C(=O)[C@H](CC(C)C)N(C)C(=O)[C@H](CC(C)C)N(C)C(=O)[C@@H](C)NC(=O)[C@H](C)NC(=O)[C@H](CC(C)C)N(C)C(=O)[C@H](C(C)C)NC(=O)[C@H](CC(C)C)N(C)C(=O)CN(C)C1=O

>  <microsomal CLint at 1 µM, µL/min/mg>
2.2

$$$$

Continue with the compound presented below.
### Prompt I would be grateful if you could share the reported microsomal CLint at 1 µM for `CC[C@@H]1NC(=O)[C@H]([C@@H]2O[C@@H](Sc3cccc(OCc4ccc(F)cc4)c3)C[C@H]2C)N(C)C(=O)[C@H](C(C)C)N(C)C(=O)[C@H](CC(C)C)N(C)C(=O)[C@H](CC(C)C)N(C)C(=O)[C@@H](C)NC(=O)[C@H](C)NC(=O)[C@H](CC(C)C)N(C)C(=O)[C@H](C(C)C)NC(=O)[C@H](CC(C)C)N(C)C(=O)CN(C)C1=O` .
### Response 2
